test: COS7 lysate on small-molecule microarray, probe aHis, 635 nm (AID 1123); settings: COS7 cell lysate, fluorescence, higher = more signal;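 also: z-score combines 667nm fluorescence intensity with signal-to-noise per printed compound spot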
Quick reference for composite z-score among some molecules

Example molecules with recorded composite z-score:
molecule	composite z-score
CC1CC/C=C\[C@H]2OC34C=CCN(Cn5nnc6ccccc65)C(=O)[C@H]3N(CCCCCCO)C(=O)[C@@H]4C2C(=O)O1 (stereo partly specified)	-0.0339
O=C1[C@H]2C=C(I)[C@H](C[C@@H]2OCCCCCCO)[C@@]12CO2	-0.298
C=CCN1C(=O)[C@@]2(O[C@@H](CCn3cc([C@H](O)c4ccccc4)nn3)[C@H]([Si](C)(C)c3ccc(OC)cc3)[C@H]2C)c2cc(N3C(=O)c4cccc5cccc3c45)ccc21	0.436
O=C1O[C@@H](c2ccccc2)[C@@H](c2ccccc2)N2[C@@H](c3ccc(OCCO)cc3)[C@]3(C(=O)Nc4ccc(C#CC5(O)CCCCCC5)cc43)[C@@H](C(=O)Nc3nc4ccccc4s3)[C@H]12	2.31
COC(=O)C(CC#Cc1ccc2c(c1)[C@]1(C(=O)N2)[C@H](C(=O)N2CCc3cc(OC)c(OC)cc3C2)[C@H]2C(=O)O[C@H](c3ccccc3)[C@H](c3ccccc3)N2[C@@H]1c1ccccc1OCCO)C(=O)OC	2.3

Moving on to another molecule below.
// query Input COc1ccc(C(O)C2C=CC3C(=O)NC(=O)C3N2Nc2ccc(Cl)cc2Cl)c2ccccc12 (stereo unspecified) , output reported composite z-score.
// result 1.94
